Give measured % Protein Degradation PTP1B for each item. Keep answers brief.
Biological target: UniProtKB P18031
Sequence (P18031 1-435): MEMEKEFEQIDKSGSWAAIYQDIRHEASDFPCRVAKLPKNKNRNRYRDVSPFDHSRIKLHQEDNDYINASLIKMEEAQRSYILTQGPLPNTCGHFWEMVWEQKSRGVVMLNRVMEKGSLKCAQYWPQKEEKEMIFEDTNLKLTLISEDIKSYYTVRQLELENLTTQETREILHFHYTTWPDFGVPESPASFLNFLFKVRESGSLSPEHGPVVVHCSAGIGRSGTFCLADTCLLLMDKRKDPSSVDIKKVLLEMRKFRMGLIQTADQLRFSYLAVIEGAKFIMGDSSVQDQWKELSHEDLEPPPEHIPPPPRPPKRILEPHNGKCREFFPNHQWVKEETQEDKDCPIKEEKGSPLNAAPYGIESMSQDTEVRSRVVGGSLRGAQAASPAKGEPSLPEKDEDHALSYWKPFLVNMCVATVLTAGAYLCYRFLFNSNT
Assay: Degradation assay in HEK293 cells (immunoblotting)
Format: cell-based
Parameters: Degradation assay was conducted in HEK293 cells with 1 μM degrader and 24 hours incubation; endogenous in cells; host or cells: HEK293
Conditions: 1 μM degrader, 24 hours
*1 amine or outer side, *2 acyl side, *3 side chain or, on linkers, in order; H or OH if unused. Where a SMILES comes first, the peptide text is derived from it. [ ]: non-standard residue; d: D form. The star is where a group is joined. NHBn(4-(4-Me-thiazol-5-yl)) = Cc1ncsc1-c1ccc(CN*)cc1; F2Pmp = N[C@@H](Cc1ccc(C(F)(F)P(=O)(O)O)cc1)C(=O)O; Phenylacetyl(4-OH,3-OMe) = COc1cc(CC(=O)*)ccc1O; Benzoyl(3-Br,4-Me) = Cc1ccc(C(=O)*)cc1Br; NH(CH2)9CO = O=C(CCCCCCCCCN[*:1])[*:2]; Hyp = O=C(O)[C@@H]1C[C@@H](O)CN1; dHyp = O=C(O)[C@H]1C[C@H](O)CN1; dTle = CC(C)(C)[C@@H](N)C(=O)O; Tle = CC(C)(C)[C@H](N)C(=O)O; Aoc = NCCCCCCCC(=O)O; Ahp = NCCCCCCC(=O)O
Numbers only, in %.

// below: answered molecules
[[record]]
molecule = "COc1cc(CC(=O)N[C@@H](Cc2ccccc2)C(=O)N[C@@H](Cc2ccc(C(F)(F)P(=O)(O)O)cc2)C(=O)N[C@@H](CCCCNC(=O)c2ccc(C)c(Br)c2)C(=O)NCCCCCCCC(=O)N[C@@H](C(=O)N2C[C@@H](O)C[C@@H]2C(=O)NCc2ccc(-c3scnc3C)cc2)C(C)(C)C)ccc1O [Compound 83] ({Phenylacetyl(4-OH,3-OMe)}-F[F2Pmp]K(Benzoyl(3-Br,4-Me))[Aoc][dTle][dHyp]-{NHBn(4-(4-Me-thiazol-5-yl))})"
value_reported = 58

[[record]]
molecule = "COc1cc(CC(=O)N[C@@H](Cc2ccccc2)C(=O)N[C@@H](Cc2ccc(C(F)(F)P(=O)(O)O)cc2)C(=O)N[C@@H](CCCCNC(=O)c2ccc(C)c(Br)c2)C(=O)NCCCCCCCCCC(=O)N[C@H](C(=O)N2C[C@H](O)C[C@H]2C(=O)NCc2ccc(-c3scnc3C)cc2)C(C)(C)C)ccc1O [Compound 14] ({Phenylacetyl(4-OH,3-OMe)}-F[F2Pmp]K(Benzoyl(3-Br,4-Me))[NH(CH2)9CO][Tle][Hyp]-{NHBn(4-(4-Me-thiazol-5-yl))})"
value_reported = 38


// moving on: another record for % Protein Degradation PTP1B
query: Requested field: % Protein Degradation PTP1B. Item: COc1cc(CC(=O)N[C@@H](Cc2ccccc2)C(=O)N[C@@H](Cc2ccc(C(F)(F)P(=O)(O)O)cc2)C(=O)N[C@@H](CCCCNC(=O)c2ccc(C)c(Br)c2)C(=O)NCCCCCCC(=O)N[C@@H](C(=O)N2C[C@@H](O)C[C@@H]2C(=O)NCc2ccc(-c3scnc3C)cc2)C(C)(C)C)ccc1O [Compound 10] ({Phenylacetyl(4-OH,3-OMe)}-F[F2Pmp]K(Benzoyl(3-Br,4-Me))[Ahp][dTle][dHyp]-{NHBn(4-(4-Me-thiazol-5-yl))})
result: 61

----------
Molecular target: PTP1B (Homo sapiens)
Sequence (P18031 1-435): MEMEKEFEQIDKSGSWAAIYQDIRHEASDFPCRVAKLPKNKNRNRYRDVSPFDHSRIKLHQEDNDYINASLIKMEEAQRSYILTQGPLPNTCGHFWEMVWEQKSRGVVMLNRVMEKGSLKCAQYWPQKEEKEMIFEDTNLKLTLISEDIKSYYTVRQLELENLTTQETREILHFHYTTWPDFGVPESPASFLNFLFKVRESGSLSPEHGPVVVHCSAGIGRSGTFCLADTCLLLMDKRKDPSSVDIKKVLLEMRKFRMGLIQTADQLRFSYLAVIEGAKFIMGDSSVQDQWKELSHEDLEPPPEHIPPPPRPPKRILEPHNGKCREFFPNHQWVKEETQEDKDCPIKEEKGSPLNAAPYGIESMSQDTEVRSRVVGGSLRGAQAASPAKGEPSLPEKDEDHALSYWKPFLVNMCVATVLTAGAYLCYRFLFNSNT
Test: PTP activity assay with pNPP substrate (IC50, Ki, mode of inhibition)
Conditions: PTP1B-catalyzed pNPP hydrolysis
measured attribute: Ki (nM)
One number for each entry, in nM.

query: Requested field: Ki. Item: COc1cc(CC(=O)N[C@@H](Cc2ccccc2)C(=O)N[C@@H](Cc2ccc(C(F)(F)P(=O)(O)O)cc2)C(=O)N[C@@H](CCCCNC(=O)c2ccc(C)c(Br)c2)C(N)=O)ccc1O [Example 7]
result: 2.4

----------
Target: TC-PTP (Homo sapiens)
Sequence (P17706 whole entry): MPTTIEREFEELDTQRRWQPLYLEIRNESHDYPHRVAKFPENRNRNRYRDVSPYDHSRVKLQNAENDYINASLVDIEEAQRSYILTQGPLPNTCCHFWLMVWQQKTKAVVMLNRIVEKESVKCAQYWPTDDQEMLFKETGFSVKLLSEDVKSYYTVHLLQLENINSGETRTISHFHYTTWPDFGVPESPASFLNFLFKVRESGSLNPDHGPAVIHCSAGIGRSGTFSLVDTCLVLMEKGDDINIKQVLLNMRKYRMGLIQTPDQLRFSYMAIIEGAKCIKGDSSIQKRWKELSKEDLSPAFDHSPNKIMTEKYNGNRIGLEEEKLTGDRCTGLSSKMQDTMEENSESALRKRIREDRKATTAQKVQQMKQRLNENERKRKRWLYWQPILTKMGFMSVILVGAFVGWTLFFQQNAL
Test: PTP activity assay with pNPP substrate (IC50, Ki, mode of inhibition)
Type: biochemical
Settings: pNPP 2 mM, pH 7.0, 25° C.; read-out: IC50, nM TC-PTP
*1 amine or outer side, *2 acyl side, *3 side chain or, on linkers, in order; H or OH if unused. Where a SMILES comes first, the peptide text is derived from it. [ ]: non-standard residue; d: D form. The star is where a group is joined. NHBn(4-(4-Me-thiazol-5-yl)) = Cc1ncsc1-c1ccc(CN*)cc1; F2Pmp = N[C@@H](Cc1ccc(C(F)(F)P(=O)(O)O)cc1)C(=O)O; Phenylacetyl(4-OH,3-OMe) = COc1cc(CC(=O)*)ccc1O; Benzoyl(3-Br,4-Me) = Cc1ccc(C(=O)*)cc1Br; Hyp = O=C(O)[C@@H]1C[C@@H](O)CN1; X3 = O=C(CCC1CCN([*:1])CC1)[*:2]; dHyp = O=C(O)[C@H]1C[C@H](O)CN1; dTle = CC(C)(C)[C@@H](N)C(=O)O; Tle = CC(C)(C)[C@H](N)C(=O)O; 4Amb = NCc1ccc(C(=O)O)cc1; Aoc = NCCCCCCCC(=O)O
Give measured IC50 for each item. Keep answers brief.
Give bare numbers, in nM.

// below: answered molecules
[[record]]
molecule = "COc1cc(CC(=O)N[C@@H](Cc2ccccc2)C(=O)N[C@@H](Cc2ccc(C(F)(F)P(=O)(O)O)cc2)C(=O)N[C@@H](CCCCNC(=O)c2ccc(C)c(Br)c2)C(=O)NCCCCCCCC(=O)N[C@@H](C(=O)N2C[C@@H](O)C[C@@H]2C(=O)NCc2ccc(-c3scnc3C)cc2)C(C)(C)C)ccc1O [Compound 83] ({Phenylacetyl(4-OH,3-OMe)}-F[F2Pmp]K(Benzoyl(3-Br,4-Me))[Aoc][dTle][dHyp]-{NHBn(4-(4-Me-thiazol-5-yl))})"
value_reported = 10.6

[[record]]
molecule = "COc1cc(CC(=O)N[C@@H](Cc2ccccc2)C(=O)N[C@@H](Cc2ccc(C(F)(F)P(=O)(O)O)cc2)C(=O)N[C@@H](CCCCNC(=O)c2ccc(C)c(Br)c2)C(=O)N2CCC(CCC(=O)N[C@H](C(=O)N3C[C@H](O)C[C@H]3C(=O)NCc3ccc(-c4scnc4C)cc3)C(C)(C)C)CC2)ccc1O [Compound 58] ({Phenylacetyl(4-OH,3-OMe)}-F[F2Pmp]K(Benzoyl(3-Br,4-Me))[X3][Tle][Hyp]-{NHBn(4-(4-Me-thiazol-5-yl))})"
value_reported = 8


// moving on: another record for IC50
query: Requested field: IC50. Item: COc1cc(CC(=O)N[C@@H](Cc2ccccc2)C(=O)N[C@@H](Cc2ccc(C(F)(F)P(=O)(O)O)cc2)C(=O)N[C@@H](CCCCNC(=O)c2ccc(C)c(Br)c2)C(=O)NCc2ccc(C(=O)N[C@H](C(=O)N3C[C@H](O)C[C@H]3C(=O)NCc3ccc(-c4scnc4C)cc3)C(C)(C)C)cc2)ccc1O [Compound 54] ({Phenylacetyl(4-OH,3-OMe)}-F[F2Pmp]K(Benzoyl(3-Br,4-Me))[4Amb][Tle][Hyp]-{NHBn(4-(4-Me-thiazol-5-yl))})
result: 21.3
